// data source = PubChem BioAssay AID1996

Details: buffer; pH 7.4; 200.0 µM
I'd appreciate it if you could supply solubility kinetic values for the items below.

{"smiles-data": "COc1ccc(Br)cc1CN1CCN(c2ncccn2)CC1", "assay-metric": "solubility kinetic", "value-measured": "38.8 µg/mL"}
{"smiles-data": "CCn1c(NCc2ccc(OC)cc2)nc2ccccc21", "assay-metric": "solubility kinetic", "value-measured": "> 42.2 µg/mL"}
{"smiles-data": "Cc1ccc(Cl)c(NC(=O)CN2CCNC(=O)C2)c1Cl", "assay-metric": "solubility kinetic", "value-measured": "> 47.4 µg/mL"}
{"smiles-data": "COc1cc(C(=O)N2CCCc3ccccc32)c([N+](=O)[O-])cc1OC", "assay-metric": "solubility kinetic", "value-measured": "> 51.4 µg/mL"}

For the 3 compounds below, give their solubility kinetic values.
1. O=C(CN1CCOCC1)NCc1ccccc1Cl
2. COc1ccc(CCN)cc1OC
3. O=C(NC1CCCC1)C1CCN(C(=O)c2ccccc2Cl)CC1

Response line:
1. > 40.3 µg/mL
2. 24.8 µg/mL
3. > 50.2 µg/mL
